Values from ChEMBL document CHEMBL1145544

molecular target: Adenosine receptor A2b (Homo sapiens) (UniProt P29275); assay: Agonist activity human adenosine A2B receptor expressed in CHO cells assessed as stimulation of adenylate cyclase relative to NECA; type: functional, cell-based
Sequence (P29275 whole entry): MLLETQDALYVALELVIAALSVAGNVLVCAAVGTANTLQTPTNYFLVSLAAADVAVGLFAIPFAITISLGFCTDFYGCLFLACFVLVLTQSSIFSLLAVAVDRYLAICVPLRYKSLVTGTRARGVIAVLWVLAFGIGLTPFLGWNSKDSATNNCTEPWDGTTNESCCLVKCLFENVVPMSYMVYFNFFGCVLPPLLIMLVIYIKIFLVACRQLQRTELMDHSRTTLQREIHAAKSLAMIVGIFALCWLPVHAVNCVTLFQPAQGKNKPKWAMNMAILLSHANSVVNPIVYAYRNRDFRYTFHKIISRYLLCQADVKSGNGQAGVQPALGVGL
Rule: t for Activity not less than -0.4, f for anything less.

{"columns": ["LINE_NOTATION", "LABEL_VALUE"],
 "data": [
  ["CCNC(=O)[C@H]1O[C@@H](n2cnc3c(Nc4ccc(OCC(=O)NCc5ccc(OC)cc5)cc4)ncnc32)[C@H](O)[C@@H]1O", "t"],
  ["Nc1ncnc2c1ncn2[C@@H]1O[C@H](C(=O)NC2CC2)[C@@H](O)[C@H]1O", "t"],
  ["CCNC(=O)[C@H]1O[C@@H](n2cnc3c(N)nc(OCCc4c[nH]c5ccccc45)nc32)[C@H](O)[C@@H]1O", "f"],
  ["CCNC(=O)[C@H]1O[C@@H](n2cnc3c(Nc4ccc(OCC(=O)NC5CCCCC5)cc4)ncnc32)[C@H](O)[C@@H]1O", "t"],
  ["CCNC(=O)[C@H]1O[C@@H](n2cnc3c(NNC(=O)c4ccsc4)nc(Cl)nc32)[C@H](O)[C@@H]1O", "f"],
  ["O=S(=O)(O)c1ccc(Nc2ncnc3c2ncn3[C@@H]2O[C@H](CO)[C@@H](O)[C@H]2O)cc1", "f"],
  ["O=C(COc1ccc(Nc2nc(OCCc3c[nH]c4cc(Br)ccc34)nc3c2ncn3[C@@H]2O[C@H](CO)[C@@H](O)[C@H]2O)cc1)Nc1ccccc1", "t"]
]}

Is it the case that "Nc1nc(Cl)nc2c1ncn2[C@@H]1O[C@H](CO)[C@@H](O)[C@H]1O" has Activity reaching or exceeding -0.4? f

----------
biological target: Adenosine receptor A2a (Homo sapiens, UniProt P29274)
Sequence (P29274 whole entry): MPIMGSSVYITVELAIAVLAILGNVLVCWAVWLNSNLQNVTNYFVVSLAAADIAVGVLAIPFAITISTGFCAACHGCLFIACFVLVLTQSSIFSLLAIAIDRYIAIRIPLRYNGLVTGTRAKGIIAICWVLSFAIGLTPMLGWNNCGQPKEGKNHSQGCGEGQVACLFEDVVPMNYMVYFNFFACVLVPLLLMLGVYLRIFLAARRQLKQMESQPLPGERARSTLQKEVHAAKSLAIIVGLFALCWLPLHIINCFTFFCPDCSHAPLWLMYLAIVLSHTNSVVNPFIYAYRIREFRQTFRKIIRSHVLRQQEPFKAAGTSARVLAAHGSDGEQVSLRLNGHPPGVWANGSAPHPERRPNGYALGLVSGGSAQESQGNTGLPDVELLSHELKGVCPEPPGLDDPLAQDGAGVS
PROPERTY_LABEL: Ki (nM)
Please give a number only; it is taken to be in nM.

Output reported Ki of the molecule "NNc1nc(OCCc2c[nH]c3cc(Br)ccc23)nc2c1ncn2[C@@H]1O[C@H](CO)[C@@H](O)[C@H]1O" on Adenosine receptor A2a (Homo sapiens, UniProt P29274). 2050

----------
target: UniProt:P29275; test: Agonist activity human adenosine A2B receptor expressed in CHO cells assessed as stimulation of adenylate cyclase relative to NECA; format: functional, cell-based
Tag: condition met if measured Activity is not below -0.2, condition not met if it is.

Example entries and their recorded answers appear below.
{"columns": ["LINE_NOTATION", "LABEL_VALUE"],
 "data": [
  ["Nc1nc(OCCc2cccc3ccccc23)nc2c1ncn2[C@@H]1O[C@H](CO)[C@@H](O)[C@H]1O", "condition not met"],
  ["CCNC(=O)[C@H]1O[C@@H](n2cnc3c(Nc4ccc(OCC(=O)Nc5ccc(I)cc5)cc4)ncnc32)[C@H](O)[C@@H]1O", "condition met"],
  ["CCNC(=O)[C@H]1O[C@@H](n2cnc3c(Nc4ccc(OCC(=O)Nc5ccccc5)cc4)ncnc32)[C@H](O)[C@@H]1O", "condition met"],
  ["Nc1nc(C#C[C@H](O)c2ccccc2)nc2c1ncn2[C@@H]1O[C@H](CO)[C@@H](O)[C@H]1O", "condition not met"]
]}

Hi, just wondering whether "CNc1nc(C#CCCCc2ccccc2)nc2c1ncn2[C@@H]1O[C@H](CO)[C@@H](O)[C@H]1O" shows Activity of -0.2 or higher. condition not met

Does "CCCCC#Cc1nc(N)c2ncn([C@@H]3O[C@H](CO)[C@@H](O)[C@H]3O)c2n1" have a reported Activity of at least -0.2? condition not met

Identify whether the reported Activity of the following molecule is -0.2 or greater: "Nc1nc(OCCc2c[nH]c3cc(Cl)ccc23)nc2c1ncn2[C@@H]1O[C@H](CO)[C@@H](O)[C@H]1O" condition met

# check: Activity of "COc1ccc2[nH]cc(CCOc3nc(N)c4ncn([C@@H]5O[C@H](CO)[C@@H](O)[C@H]5O)c4n3)c2c1" is greater than or equal to -0.2 condition not met
